Entry source: patent US20220411498A1

Molecular target: T1, huCD39 on the cell surface (293T/17-huCD39 cells) (human, UniProt P49961 1-510)
T1 construct: whole, on cells; also called natural CD39 protein on the cell surface; huCD39 antigen on the cell surface
T1 sequence (looked up): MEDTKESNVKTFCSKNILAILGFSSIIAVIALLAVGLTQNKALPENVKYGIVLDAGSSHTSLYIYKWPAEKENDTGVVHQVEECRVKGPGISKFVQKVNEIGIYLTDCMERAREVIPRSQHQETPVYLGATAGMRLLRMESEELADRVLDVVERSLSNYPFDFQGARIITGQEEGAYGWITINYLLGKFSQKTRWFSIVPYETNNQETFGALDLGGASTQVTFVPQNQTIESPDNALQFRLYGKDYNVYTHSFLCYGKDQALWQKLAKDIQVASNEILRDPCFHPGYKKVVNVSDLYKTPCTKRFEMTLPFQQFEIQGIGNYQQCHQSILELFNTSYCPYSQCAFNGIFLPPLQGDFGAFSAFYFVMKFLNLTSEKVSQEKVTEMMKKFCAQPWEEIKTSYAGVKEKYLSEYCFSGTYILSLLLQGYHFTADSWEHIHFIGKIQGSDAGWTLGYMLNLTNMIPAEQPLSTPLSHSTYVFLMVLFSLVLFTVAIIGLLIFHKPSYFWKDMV
Test: flow cytometry on 293T/17-huCD39 cells
MEASURED_QUANTITY: pEC50
A value of pEC50 is the negative decimal logarithm of a concentration given in moles per litre.

Value lookup for pEC50; key = 216 hIgG2 (antibody, V domains shown, Chimeric antibody: mouse Fv fused to the human IgG2 constant region; also called chimeric antibody 216) VH: EVQLVESGGGLVKPGGSLKLPCAASGFTFSDYGMHWVRQAPEKGLEWVAYISSGSSIIYYADTVKGRFTISRDNAKNTLFLQMTSLRSEDTAMYYCARDLYYDHVLDYWGQGTTLTVAS VL: DIQMTQSPSSLSASLGERVSLTCRASQEISGYLIWLQQKPDGTIKRLIYAASTLDSGVPKRFSGNRSGSDYSLTISSLESEDFADYYCLQYASYPRTFGGGTKLEIKR 8.23

Thanks! And 219 hIgG2 (antibody, V domains shown, Chimeric antibody: mouse Fv fused to the human IgG2 constant region; also called chimeric antibody 219) VH: EVQLVESGGGLVKPGGSLKLSCAASGFTFSDYGMHWVRQAPEKGLEWVAYISSGSSIRYYADTVKGRFTISRDNAKNTLFLQMTSLRSEDTAIYYCARDLYYDHVLDYWGQGTTLTVSS VL: DIQMTQSPSSLSASLGERVSLTCRASQEVSGYLNWLQQKPDGTIKRLIYAASTLDSGVPKRFSGSRSGSDYSLTISSLESEDFADYYCLQYASYPRTFGGGTKVEIKR ? 8.35

Thanks! And 217 hIgG2 (antibody, V domains shown, Chimeric antibody: mouse Fv fused to the human IgG2 constant region) VH: EVQLVESGGGLVKPGGSLKLSCAASGFTFSDYGMHWVRQAPEKGLEWVAYISSGSSVIYYVDTVKGRFTISRDNAKNTLFLQMTSLRSEDTAMYYCARDLYYDHVLDSWGQGTTLTVSS VL: DIQMTQSPSSLSASLGERVSLTCRASQEIGGYLSWLQQKPDGTIKRLIYAASTLDSGVPKRFSGSRSGSDYSLTISSLESEDFADYYCLQYASYPRTFGGGTKLEIKR ? 8.42

Thanks! And 201 hIgG2 (antibody, V domains shown, Chimeric antibody: mouse Fv fused to the human IgG2 constant region, expressed in 293F cells; also called chimeric antibody 201) VH: EVQLVESGGGLVKPGGSLKLSCAASGFTFSDYGMHWVRQAPEKGLEWVAYISSGSSIMYYADTVKGRFTISRDNAKNTLFLQMASLRSEDTAMYYCARDLYYDHVLDYWGQGTTLTVSS VL: DIQMTQSPSSLSASLGERVSLTCRASQEIRGYLIWLQQKPGGTIKRLIYAASTLDSGVPKRFSGSRSGSDYSLTISSLESEDFADYYCLQYTSYPRTFGGGTKLEIKR ? 8.18
